# ASSAY INFO: Leishmania major promastigote growth inhibition, primary screen (AID 1063);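 note: promastigotes grown with compound for 44 hours at 28 °C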
# CONDITION SUMMARY: Leishmania major promastigotes, resazurin fluorescence viability; at 10 µM
Among all 200,000 compounds or so, about 18,000 (9%) were called active. Cut-off read from the data, not from the text of the source: active = inhibition above about 50%; inactive = the rest. Many of the other results were omitted from the sample, so actives are more common in it than they were.
Tick one outcome: TRUE = active, FALSE = inactive

Worked examples, 8 molecules total:
// query What was the test verdict on Cc1ccc(NC(=O)c2ccc(S(=O)(=O)NCC3CCCO3)cc2)cc1C (centres undefined) ?
// result FALSE

// query Recorded test outcome, item CC1=C(C)CC(C(=O)NC(C)CCc2ccccc2)C(C(=O)O)C1 (centres undefined)
// result FALSE

// query Query: recorded result category for CCOc1ccc(S(=O)(=O)Nc2ccncc2)c(C)c1C in this test
// result FALSE

// query Please let me know the test result on file for Cn1c(CCC(=O)Nc2ccccc2F)nnc1SCC(=O)Nc1ccccc1Cl .
// result FALSE

// query Identify the outcome logged in this assay for the molecule shown: COc1ccc2nc(SCc3ccccc3)nc(C)c2c1
// result FALSE

// query Please share the test call associated with Clc1ccc(-c2nnc(-c3ccccc3)nc2N2CCSCC2)cc1 .
// result TRUE

// query Identify the outcome logged in this assay for the molecule shown: CC1CN(c2nc(-c3ccccc3)nnc2-c2ccccc2)CC(C)O1 (centres undefined)
// result FALSE

// query Kindly provide the recorded test outcome for the following molecule: O=C(NN1C(=O)C2C3C=CC(O3)C2C1=O)c1ccccc1 (centres undefined)
// result FALSE

Others:
// query Name the outcome recorded for O=C1N/C(=C/c2cccs2)C(=O)N1Cc1ccc(F)cc1 in the assay.
// result FALSE

// query For O=C(O)CCCCCNc1ncnc2ccc(Br)cc12 , which call appears in the assay record?
// result FALSE

// query For Cc1cnc(C(=O)OCC(=O)NCCCc2ccccc2)cn1 , which call appears in the assay record?
// result FALSE

// query Just curious, what result did O=C1CCC(=O)N1c1ccc(NCCc2ccccc2F)c([N+](=O)[O-])c1 get here?
// result FALSE

// query Could you check what this test reported for CC(=O)Nc1ccccc1OC(C)C(=O)N1CCC(C)CC1 (centres undefined) ?
// result FALSE

// query Per the records of this test, what outcome belongs to COc1ccc(NC(=O)CN(C)CC(=O)Nc2cccc(C(F)(F)F)c2)cc1 ?
// result FALSE

// query What call does the record list for COc1ccc2nc(/N=C(\N)NC(=O)Nc3ccccc3)nc(C)c2c1 ?
// result TRUE

// query For CN(C)CCNC(CC(=O)Nc1ccc(Cl)c(Cl)c1)C(=O)O (centres undefined) , what call appears in the results of this test?
// result FALSE

----------
Known inhibition of a selection of compounds
# ASSAY INFO: Leishmania major promastigote growth inhibition, primary screen (AID 1063);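 note: promastigotes grown with compound for 44 hours at 28 °C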
# CONDITION SUMMARY: Leishmania major promastigotes, resazurin fluorescence viability; at 10 µM; active compounds read high
Screen size: about 200,000 compounds; about 18,000 (9%) were called active. The sample as a whole holds a higher share of actives than the screen did.

// query inhibition lookup needed for CCCCCCCNc1nc(Cl)nc(NCCO)n1 , thanks.
// result -8.89% (inactive)

// query May I ask what inhibition has been recorded for COC(=O)C1=C(N)Oc2cc(C)oc(=O)c2C1c1cccnc1 (stereo unspecified) ?
// result 42.3% (inactive)

// query Query (compound): Cc1ccc(S(=O)(=O)NC(C(=O)N2CCOCCOCCOCCOCC2)c2ccccc2)cc1 (stereo unspecified) ; field requested: inhibition
// result -7.01% (inactive)

More entries:
// query inhibition value for entry Cc1c(C=O)n(C)n(-c2ccccc2)c1=O
// result 0.34% (inactive)

// query Look up inhibition for this compound: CCSc1nc2c(c(=O)[nH]1)C(c1cccnc1)C(C(=O)OC(C)C)=C(C)N2 (stereo unspecified)
// result 56% (active)

// query # get_value(readout='inhibition', item= CCCC(=O)OCC(=O)Nc1cc(Cl)ccc1[N+](=O)[O-] )
// result -6.12% (inactive)

// query Item under review: NS(=O)(=O)c1ccc(NC(=S)NNC(=O)c2cccs2)cc1 . Reported inhibition?
// result -4.08% (inactive)

// query Consider the compound shown here: CNC(=O)NC(=O)CSc1nnc(-c2ccc(F)cc2)n1CC1CCCO1 (stereo unspecified) What is its recorded inhibition?
// result -2.36% (inactive)

// query Item under review: Cc1csc(NC(=S)Nc2cccc(Cl)c2)n1 . Reported inhibition?
// result 9.23% (inactive)

// query Would you mind telling me what inhibition value was observed for C=CCn1c2ccccc2c2nnc(SC(CC)C(=O)Nc3nc(C)c(C(=O)OCC)s3)nc21 (stereo unspecified) ?
// result 62.5% (active)

// query Recorded inhibition for CCC1(CC)NC(=O)N(Cc2nc3ccccc3s2)C1=O , please?
// result -8.89% (inactive)

// query So what does the record say about inhibition for O=C(Nc1cccc(Cl)c1)c1cc([N+](=O)[O-])ccc1N1CCN(CCO)CC1 ?
// result 0.91% (inactive)
